Taken from the SangsterLogP compilation.

assay: method code SF-CR, from PMID: 582926
Recorded logP by entry
# output: bare number, no unit

Dear colleague, I am looking for the recorded logP of the following compound: CC(=O)OC1CC(OC2CCC3(C)C(CCC4C3CC(O)C3(C)C(C5=CC(=O)OC5)CCC43O)C2)OC(C)C1OC1CC(O)C(OC2CC(O)C(O)C(C)O2)C(C)O1 (stereo not given)
1.71

Again, but for `CC(=O)O[C@H]1C[C@]2(O)[C@@H]3CC[C@@H]4C[C@@H](O[C@H]5C[C@H](O)[C@H](O[C@H]6C[C@H](O)[C@H](O[C@H]7C[C@H](O)[C@H](O)[C@@H](C)O7)[C@@H](C)O6)[C@@H](C)O5)CC[C@]4(C)[C@H]3CC[C@]2(C)[C@H]1C1=CC(=O)OC1`
2.15

What do you have for `C[C@@H]1O[C@@H](O[C@H]2CC[C@]3(C=O)[C@H]4CC[C@]5(C)[C@@H](C6=CC(=O)OC6)CC[C@]5(O)[C@@H]4CC[C@]3(O)C2)[C@H](O)[C@H](O)[C@H]1O` ?
-0.48

Same lookup for COC1CC(OC2CC[C@@]3(C)[C@H](CC[C@@H]4[C@H]3CC[C@]3(C)C(C5=CC(=O)OC5)C(OC(C)=O)C[C@]43O)C2)OC(C)C1O (stereo not given in full) , please.
2.26

Quick one: `C[C@@H]1O[C@@H](O[C@H]2CC[C@@]3(C)[C@H](CC[C@@H]4[C@@H]3CC[C@]3(C)[C@@H](C5=CC(=O)OC5)CC[C@]43O)C2)[C@H](O)[C@H](O)[C@H]1O`
2.1

* * *

test: method code SF-AS, from PMID: 582926
readout: logP
Keep the answer to the number alone.

Need logP, item `C[C@@H]1O[C@@H](O[C@@H]2C=C3CC[C@@H]4[C@H](CC[C@]5(C)[C@@H](c6ccc(=O)oc6)CC[C@]45O)[C@@]3(C)CC2)[C@H](O)[C@H](O)[C@H]1O`
2.48

* * *

Catalogue of logP readings, one per entry.
test: method code SF-CR, from PMID: 582926
Answer using only a numeral; do not append any unit.

Item `CO[C@H]1[C@H](O)[C@H](O[C@H]2CC[C@@]3(C)[C@H](CC[C@@H]4[C@@H]3CC[C@]3(C)[C@@H](C5=CC(=O)OC5)CC[C@]43O)C2)O[C@@H](C)[C@@H]1O` has what recorded logP?
2.1

Item: `CC(=O)O[C@H]1C[C@H](O[C@H]2CC[C@@]3(C)[C@H](CC[C@@H]4[C@@H]3C[C@@H](O)[C@]3(C)[C@@H](C5=CC(=O)OC5)CC[C@]43O)C2)O[C@H](C)[C@H]1O[C@H]1C[C@H](OC(C)=O)[C@H](O[C@H]2C[C@H](O)[C@H](O)[C@@H](C)O2)[C@@H](C)O1`
2.45

Follow-up entry: `CC(=O)O[C@H]1[C@@H](OC(C)=O)C[C@H](O[C@H]2[C@@H](OC(C)=O)C[C@H](O[C@H]3[C@@H](OC(C)=O)C[C@H](O[C@H]4CC[C@@]5(C)[C@H](CC[C@@H]6[C@@H]5CC[C@]5(C)[C@@H](C7=CC(=O)OC7)[C@@H](OC(C)=O)C[C@]65O)C4)O[C@@H]3C)O[C@@H]2C)O[C@@H]1C`
2.85

Could you now look at the following compound, please?
I am curious: what logP value has been reported for `C[C@H]1O[C@@H](O[C@H]2[C@@H](O)C[C@H](O[C@H]3[C@@H](O)C[C@H](O[C@H]4CC[C@@]5(C)[C@H](CC[C@@H]6[C@@H]5CC[C@]5(C)[C@@H](C7=CC(=O)OC7)[C@@H](O)C[C@]65O)C4)O[C@@H]3C)O[C@@H]2C)C[C@H](O)[C@@H]1O` ?
1.66

* * *

Entries annotated with measured logP
assay: method code SF-CR, from PMID: 582926
Provide a numeric answer; units are not to be included.

Entry under review: CC12CCC(OC3OC(CO)C(O)C(O)C3O)CC1CCC1C2CCC2(C)C(C3=CC(=O)OC3)CCC12O (stereo not given) . Reported logP?
-0.64

Moving on to `CO[C@H]1[C@H](O)[C@H](O[C@H]2CC[C@@]3(C=O)[C@H](CC[C@@H]4[C@@H]3CC[C@]3(C)[C@@H](C5=CC(=O)OC5)CC[C@]43O)C2)O[C@@H](C)[C@@H]1O`
1.05

// next record CO[C@H]1C[C@H](O[C@H]2CCC3(CO)C4CCC5(C)[C@@H](C6=CC(=O)OC6)CCC5(O)C4CCC3(O)C2)O[C@H](C)[C@H]1O (stereo not given in full)
0.56

Try this molecule too: `C[C@H]1O[C@@H](O[C@H]2CC[C@]3(C=O)[C@H]4CC[C@]5(C)[C@@H](C6=CC(=O)OC6)CC[C@]5(O)[C@@H]4CC[C@]3(O)C2)C[C@H](O)[C@@H]1O`
0.3

---
Which logP reading was recorded for the molecule CC1OC(OC2CCC3(CO)C4CCC5(C)C6(C=CC(=O)OC6)CCC5(O)C4CCC3(O)C2)CC(O)C1O (stereo not given) ?
0.15

* * *

assay: method code SF-RC, from PMID: 582926
readout: logP

# count of solved cases: 5
I'd like to know its logP. The molecule in question is CC(=O)OC1CC(OC2C(O)CC(OC3C(O)CC(OC4CCC5(C)C(CCC6C5CC(O)C5(C)C(C7=CC(=O)OC7)CCC65O)C4)OC3C)OC2C)OC(C)C1O (stereo not given)
1.97

Please give the result for `CC(=O)O[C@H]1C[C@H](O[C@H]2[C@@H](O)C[C@H](O[C@H]3[C@@H](O)C[C@H](O[C@H]4CC[C@@]5(C)[C@@H](CC[C@@H]6[C@H]5CC[C@]5(C)[C@@H](C7=CC(=O)OC7)CC[C@]65O)C4)O[C@@H]3C)O[C@@H]2C)O[C@H](C)[C@H]1O[C@@H]1O[C@H](CO)[C@@H](O)[C@H](O)[C@H]1O` too.
1.23

Next up: CC1OC(OC2CCC3(C)C(CCC4C3CCC3(C)C(C5=CC(=O)OC5)C(O)CC43O)C2)CC(O)C1O (stereo not given)
1.76

Can you check `C[C@H]1O[C@@H](O[C@H]2CC[C@@]3(C)[C@H](CC[C@@H]4[C@@H]3CC[C@]3(C)[C@@H](C5=CC(=O)OC5)CC[C@]43O)C2)C[C@H](O)[C@@H]1O[C@H]1C[C@H](O)[C@H](O[C@H]2C[C@H](O)[C@H](O[C@@H]3O[C@H](C(=O)O)[C@@H](O)[C@H](O)[C@H]3O)[C@@H](C)O2)[C@@H](C)O1` next?
-1.1

Repeat with `C[C@H]1O[C@@H](O[C@H]2[C@@H](O)C[C@H](O[C@H]3CC[C@@]4(C)[C@@H](CC[C@@H]5[C@@H]4CC[C@]4(C)[C@@H](C6=CC(=O)OC6)CC[C@]54O)C3)O[C@@H]2C)C[C@H](O)[C@@H]1O`
2.15

***
Look at this molecule and give its reported logP. CO[C@H]1CC(O[C@H]2CC[C@@]3(C)[C@H](CC[C@@H]4[C@@H]3CC[C@]3(C)[C@@H](C5=CC(=O)OC5)[C@@H](OC(C)=O)C[C@]43O)C2)O[C@@H](C)[C@@H]1OC(C)=O (stereo not given in full)
2.95

Try this molecule next: CO[C@H]1CC(O[C@H]2CC[C@@]3(C)[C@H](CC[C@@H]4[C@@H]3CC[C@]3(C)[C@@H](C5=CC(=O)OC5)[C@@H](OC(C)=O)C[C@]43O)C2)O[C@H](C)C1=O (stereo not given in full)
1.65

Do the same for CC1O[C@H](O[C@H]2CC[C@]3(CO)C4CC[C@]5(C)[C@@H](C6=CC(=O)OC6)CC[C@]5(O)C4CC[C@]3(O)C2)C(O)C(O)[C@@H]1O (stereo not given in full) please
-0.62

* * *

assay: method code SF-RC, from PMID: 582926
# maps each entry to its logP

For `CO[C@H]1C[C@H](O[C@H]2CC[C@@]3(C)[C@H](CC[C@@H]4[C@@H]3CC[C@]3(C)[C@@H](C5=CC(=O)OC5)CC[C@]43O)C2)O[C@@H](C)[C@@H]1O` , what is its reported logP?
2.37

Also CC(=O)OC1C[C@@H](OC2C(O)C[C@@H](OC3C(O)C[C@@H](OC4CC[C@@]5(C)[C@H](CC[C@H]6[C@H]5CC(O)[C@]5(C)C(C7=CC(=O)OC7)CC[C@]65O)C4)OC3C)OC2C)OC(C)C1O[C@H]1OC(CO)C(O)C(O)C1O (some centres not stated) ?
0.07

Now give it for `CO[C@H]1[C@@H](O)C[C@H](O[C@H]2[C@@H](O)C[C@H](O[C@H]3[C@@H](O)C[C@H](O[C@H]4CC[C@@]5(C)[C@H](CC[C@@H]6[C@@H]5C[C@@H](O)[C@]5(C)[C@@H](C7=CC(=O)OC7)CC[C@]65O)C4)O[C@@H]3C)O[C@@H]2C)O[C@@H]1C` too.
1.73

***
I have this molecule here, CC1OC(OC2CCC3(C)C(CCC4C3CCC3(C)C(C5=CC(=O)OC5)CCC43O)C2)CC(O)C1O (configuration not stated) , and I need its recorded logP.
2.48

What about this molecule? CC1OC(OC2CCC3(C)C(CCC4C3CC(O)C3(C)C(C5=CC(=O)OC5)CCC43O)C2)CC(O)C1OC1CC(O)C(OC2CC(O)C(OC3OC(C(=O)O)C(O)C(O)C3O)C(C)O2)C(C)O1 (configuration not stated)
-1.77

What about `C[C@]12CC[C@H](O)C[C@H]1CC[C@H]1C3=CC[C@H](C4=CC(=O)OC4)[C@@]3(C)CC[C@@H]12` ?
2.52

Moving on to CC(=O)OC1CC2(O)C3CCC4CC(O)CCC4(C)C3CCC2(C)C1C1=CC(=O)OC1 (configuration not stated)
1.93
